Just for reference, ChEMBL document CHEMBL1136053 is where these values come from.

# measured on: Thermolysin (Bacillus thermoproteolyticus, UniProt P00800)
# Sequence (P00800 whole entry): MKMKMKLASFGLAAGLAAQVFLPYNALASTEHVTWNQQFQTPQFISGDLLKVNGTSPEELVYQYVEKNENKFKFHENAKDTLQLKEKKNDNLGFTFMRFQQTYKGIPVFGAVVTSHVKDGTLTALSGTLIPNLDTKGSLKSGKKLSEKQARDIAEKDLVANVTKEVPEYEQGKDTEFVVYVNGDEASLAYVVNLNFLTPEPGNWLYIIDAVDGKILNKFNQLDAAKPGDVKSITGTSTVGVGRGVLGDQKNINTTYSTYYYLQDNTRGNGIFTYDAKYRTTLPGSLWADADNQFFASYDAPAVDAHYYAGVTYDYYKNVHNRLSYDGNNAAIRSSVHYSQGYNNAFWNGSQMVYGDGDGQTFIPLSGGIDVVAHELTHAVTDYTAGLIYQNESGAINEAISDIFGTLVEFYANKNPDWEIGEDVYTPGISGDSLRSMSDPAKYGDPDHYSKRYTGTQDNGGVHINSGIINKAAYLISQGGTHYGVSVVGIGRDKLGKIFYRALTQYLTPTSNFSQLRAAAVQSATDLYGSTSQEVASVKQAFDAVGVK
Non-standard residues stand in square brackets, D forms with d. Residues, ends and D or L forms follow the SMILES beside them. ξ: configuration not given here. *: point of attachment. ξF = NC(Cc1ccccc1)C(=O)O; Cbz = O=C(OCc1ccccc1)*
measurement label: Ki (µM)

> print(dat)
                                   compound                               measured.on  measurement.units  recorded.measurement
1  CC(C)C[C@H](NC(=O)CNC(=O)CNC(=O)OCc1ccccc1)C(=O)NO  Thermolysin (Bacillus thermoproteolyticus, UniProt P00800)                 µM                  38.9
2  NC(=O)CNC(=O)C(Cc1ccccc1)NC(=O)OCc1ccccc1 (stereo not drawn) (Cbz-[ξF]-Gly-NH2)  Thermolysin (Bacillus thermoproteolyticus, UniProt P00800)                 µM                   347

1. CC(C)CC(OP(=O)(O)CNC(=O)OCc1ccccc1)C(N)=O (stereo not drawn)
2. CC(C)CC(NP(=O)(O)CNC(=O)OCc1ccccc1)C(=O)NC(C)C(=O)O (stereo not drawn)
Parameter check: reported Ki is higher for which label, 1 or 2 ? Returns: label corresponding to the selected item.
1
(1: 661 µM, 2: 0.0166 µM)

----------
Notes on Ki obtained with Thermolysin (Bacillus thermoproteolyticus, UniProt P00800).
measurement label: Ki (µM)

Reference set, count: 2
> print(dat)
                                   molecule                               measured.on  recorded.measurement
1    C[C@H](NC(=O)[C@H](C)NP(=O)(O)O)C(=O)O  Thermolysin (Bacillus thermoproteolyticus, UniProt P00800)                  87.1
2  CC(C)CC(NP(=O)(O)OC1OC(C)C(O)C(O)C1O)C(=O)NC(Cc1c[nH]c2ccccc12)C(=O)O (centres undefined)  Thermolysin (Bacillus thermoproteolyticus, UniProt P00800)                0.0282

I. CC(C)CC(NC(=O)NNC(=O)OCc1ccccc1)C(=O)NO (centres undefined)
II. CCCCCCP(=O)(O)NC(CC(C)C)C(=O)NC(Cc1c[nH]c2ccccc12)C(=O)NC (centres undefined)
Between these two entries, I and II , state which has the higher Ki. Mark your selection by writing its label.
I
(I: 2.69 µM, II: 0.00151 µM)
